# TEST SYSTEM: UniProtKB P19327
# Sequence (P19327 whole entry): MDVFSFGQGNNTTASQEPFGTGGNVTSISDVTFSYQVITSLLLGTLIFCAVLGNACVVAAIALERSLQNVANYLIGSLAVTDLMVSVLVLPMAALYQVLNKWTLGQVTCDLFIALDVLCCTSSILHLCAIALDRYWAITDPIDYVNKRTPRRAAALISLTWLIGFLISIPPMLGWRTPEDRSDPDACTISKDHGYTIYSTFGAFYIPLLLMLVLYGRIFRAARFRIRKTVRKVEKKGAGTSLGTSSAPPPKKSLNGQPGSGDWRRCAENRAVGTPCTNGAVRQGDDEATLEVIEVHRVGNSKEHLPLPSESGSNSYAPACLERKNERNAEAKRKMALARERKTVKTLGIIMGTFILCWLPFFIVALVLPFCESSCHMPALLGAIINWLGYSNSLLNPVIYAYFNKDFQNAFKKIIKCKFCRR
pKi: −log10 of the molar value.
// label = met if pKi is not less than 7, otherwise not met

Solved entries (count: 3):
Tell me whether pKi is at least 7 here: CC(C)N[C@@H]1CCc2c(F)cccc2C1
not met

Tell me whether pKi is at least 7 here: CCCN(CCC)[C@@H]1CCc2c(F)cccc2C1
met

Tell me whether pKi is at least 7 here: N[C@@H]1CCc2c(F)cccc2C1
not met

More entries:
Tell me whether pKi is at least 7 here: CCCCN(CCC)[C@@H]1CCc2c(F)cccc2C1
met

* * *

# TEST SYSTEM: UniProt:P35462
# Sequence (P35462 whole entry): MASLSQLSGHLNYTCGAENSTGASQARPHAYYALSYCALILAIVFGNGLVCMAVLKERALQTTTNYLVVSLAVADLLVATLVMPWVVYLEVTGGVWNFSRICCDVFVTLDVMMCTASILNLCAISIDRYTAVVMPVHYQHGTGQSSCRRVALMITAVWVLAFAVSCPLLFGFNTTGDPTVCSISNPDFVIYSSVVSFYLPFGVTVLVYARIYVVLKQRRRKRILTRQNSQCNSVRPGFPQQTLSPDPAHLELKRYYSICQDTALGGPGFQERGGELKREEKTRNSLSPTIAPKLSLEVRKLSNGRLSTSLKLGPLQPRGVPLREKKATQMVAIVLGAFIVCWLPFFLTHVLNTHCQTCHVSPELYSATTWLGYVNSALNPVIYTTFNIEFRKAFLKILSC
Task for the reader: assign each of the following compounds its reported nH.
Numbers only.

For the 3 compounds below, give their nH values.
1. CCCN[C@@H]1CCc2c(F)cccc2C1
2. CCCN(C(C)C)[C@@H]1CCc2c(F)cccc2C1
3. CCCCN[C@@H]1CCc2c(F)cccc2C1

[0.92, 0.91, 0.79]

For the 4 compounds below, give their nH values.
1. CC(C)N[C@@H]1CCc2c(F)cccc2C1
2. Fc1cccc2c1CC[C@@H](NCc1ccccc1)C2
3. CCCN(Cc1ccccc1)[C@@H]1CCc2c(F)cccc2C1
4. CCCN(CCCCN1C(=O)CC2(CCCC2)CC1=O)[C@@H]1CCc2c(F)cccc2C1

1: 0.9; 2: 0.88; 3: 0.92; 4: 0.92

For the 4 compounds below, give their nH values.
1. N[C@@H]1CCc2c(F)cccc2C1
2. CCCCN(CCC)[C@@H]1CCc2c(F)cccc2C1
3. CCCN(CCC)[C@@H]1CCc2c(F)cccc2C1
4. O=C1CC2(CCCC2)CC(=O)N1CCCCN[C@@H]1CCc2c(F)cccc2C1

1: 0.99; 2: 0.98; 3: 1.03; 4: 0.88
